Cited source for all entries: ChEMBL document CHEMBL5113470

assay.remarks: Inhibition of HEWL fibril-induced toxicity in human HEK cells assessed as cell viability by MTT assay ( Rvb = 55.2 +/- 7.2%)
Format: functional
Known Activity of a selection of compounds
A number alone suffices; assume %.

The cases that follow already have their Activity on record.
compound | test.readout | value.measured
COc1ccc(C(=O)[C@@H]2C3CCCN3[C@@]3(C(=O)Nc4ccccc43)[C@@]23C(=O)Nc2ccccc23)cc1 (some centres undefined) | Activity | 47.7
CC[C@H]1CN2CC[C@]3(C(=O)Nc4ccccc43)[C@@H]2C[C@@H]1/C(=C\OC)C(=O)OC [RHYNCHOPHYLLINE] | Activity | 77
O=C(c1ccccc1)[C@@H]1C2CCCN2[C@@]2(C(=O)Nc3ccccc32)[C@@]12C(=O)Nc1ccccc12 (some centres undefined) | Activity | 59.6

Could you now look at the following compound, please?
Query: State the recorded Activity for this entry: COc1cccc(C(=O)[C@@H]2C3CCCN3[C@@]3(C(=O)Nc4ccccc43)[C@@]23C(=O)Nc2ccccc23)c1 (some centres undefined)
Result: 64.8
